Ref: the pKa sets of Baltruschat and Czodrowski (2020)

- measurement-parameters: basic group
Please mark T if the recorded pKa is equal to or greater than 7, and F if it falls below.

query: Please indicate if the recorded pKa for `CC(=O)Nc1ccncc1` meets or exceeds 7.
result: F

query: Determine whether measured pKa meets or exceeds 7 for `OCCc1cnc(P(c2ncc(CCO)[nH]2)c2ncc(CCO)[nH]2)[nH]1`
result: T

query: Check the entry `Nc1ccc([I+]c2ccccc2)cc1` : does pKa equal or exceed 7?
result: F

query: Dear colleague, could you confirm whether `Cn1nc(-c2ccccc2)cc/c1=N\CCN1CCOCC1` has pKa at or above 7?
result: T

query: Is pKa for `NCCC[NH2+]CCCC[NH3+]` at or above 7?
result: T

query: Decide: is the reported value of pKa for `CN(C)CCC(C#N)(c1ccccc1)c1ccccc1` equal to or greater than 7?
result: T

query: Would you say `CN(C)/N=C(\N)CC[Si](C)(C)C` shows pKa at minimum 7?
result: T

query: Has `CC(C)C=O` a recorded pKa greater than or equal to 7?
result: T

query: Is the recorded value of pKa equal to or greater than 7 for this molecule? `Cc1cc(C)c(C)nn1`
result: F

query: Decide: pKa of `Cc1ncc(CO)c(C)c1O` >= 7?
result: F

query: Answer whether pKa of `CCCCNCc1ccc(C)cc1` is greater than or equal to 7.
result: T

query: Say whether `NCCc1ccc([N+](=O)[O-])cc1` shows pKa of 7 or more.
result: T

query: Dear colleague, could you confirm whether `N#Cc1cc(-c2ccccc2)nnc1NCC[NH+]1CCOCC1` has pKa at or above 7?
result: F

query: Please check the record `Cc1c[nH]c(C)c1C` and state if its pKa is at or above 7.
result: F

query: Evaluate `N/C(CC/C(N)=[NH+]/O)=N\O` : pKa at minimum 7?
result: F

query: Threshold query (pKa >= 7) on `O=C1[C@H]2C[C@H](CN3CCCC=C23)[C@@H]2CCCCN12`
result: T

query: # check: pKa of `NCCC[Se-]` is greater than or equal to 7
result: T

query: Check if pKa >= 7 (inclusive). Item: `Cc1cc(C)[nH+]c([S-])n1`
result: F

query: Entry `c1ccc(-c2nc3ncncc3[nH]2)cc1` : is its pKa no less than 7?
result: F

query: Entry `CN(C)CCC/N=C(\c1ccccc1)c1ccccc1-c1ccccc1` : is its pKa no less than 7?
result: T

query: # check: pKa of `CC(C)(C)CC(=O)n1ccnc1` is greater than or equal to 7
result: F

query: Test whether the molecule `CCN(CC)CC(=O)Nc1ccccc1` records pKa of 7 or higher.
result: T

query: Exam item: decide whether the reported pKa for `NC(=N\O)/C(N)=N/O` is at least 7.
result: F

query: Record CCN1[C@H](C)[C@@H]1C (stereo not given in full) ; criterion: pKa no lower than 7. Met?
result: T

query: Hi team, for `O=C([O-])[C@@H]1Cc2[nH]cnc2CN1` , is the recorded pKa at or above 7?
result: T

query: Say whether `Cc1nn(C)c2c1C(c1ccccc1F)=NCC(=O)N2C` shows pKa of 7 or more.
result: F

query: Exam item: decide whether the reported pKa for `Nc1ncnc2c1cnn2CCO` is at least 7.
result: F
